System: Plasmodium falciparum
assay_explanation: GSK_TCMDC: Inhibition of Plasmodium falciparum 3D7 in whole erythrocytes, using parasite LDH activity as an index of growth.
Format: functional, organism-based
test_context: Plasmodium falciparum, 3D7
observed_property: XC50 (nM)
Reply with just the number (in nM).

Record request: XC50 value, item O=C(Oc1ccc(C2CNCCc3c2cc(OC(=O)c2ccc(O)cc2)c(OC(=O)c2ccc(O)cc2)c3Cl)cc1)c1ccc(O)cc1 (stereo not given)
983

Record request: XC50 value, item O=C(Nc1ccccc1C(F)(F)F)NC1CCC(CN2CCC(c3c[nH]c4ccccc34)CC2)CC1 (stereo not given)
784

Record request: XC50 value, item Cn1c(N)c(N=O)c(=O)[nH]c1=O
176

Record request: XC50 value, item COc1ccc(C2CC(=O)C3=C(C2)NC(C)=C(C(=O)OC2CCCC2)C3c2cccc(O)c2)cc1 (stereo not given)
1010

Record request: XC50 value, item Cc1cnc(NCC2CCCCC2)nc1N[C@@H](CC(C)C)C(=O)Nc1ccccc1
869

Ref: ChEMBL document CHEMBL1157539
